# assay-explanation: Toxicity liver stage against HepG2, at 10uM
# Assay type: cell-based
# Set-up: test concentration 10 uM, cell line HepG2-A16-CD81EGFP
# measurement-setup: human, HepG2-A16-CD81EGFP cells; read-out: INHIBITION
compounds and their reported cytotoxicity at 10 µM
Hi! Could you send only the number? It should be in %, unit omitted.

Reference set, count: 5
compound: CN(CCOc1cccc(CNS(C)(=O)=O)c1)C1CCOCC1
readout-units: %
cytotoxicity at 10 µM: 2.37
//
compound: Cc1nc(CN2CCCN(C(=O)c3c(C)noc3C)CC2)cs1
readout-units: %
cytotoxicity at 10 µM: -2.87
//
compound: CC(C)CN1C(=O)CCC12CCC(NC(=O)NCc1cccnc1)CC2 (configuration not stated)
readout-units: %
cytotoxicity at 10 µM: -118
//
compound: CN1CCC(N(Cc2ccccc2F)C(=O)NCc2ccncc2)CC1
readout-units: %
cytotoxicity at 10 µM: -2.14
//
compound: COCc1nnc(NC(=O)CN2C(=O)c3ccccc3NC2C(C)C)s1 (configuration not stated)
readout-units: %
cytotoxicity at 10 µM: -4.19

Input: Data request, read-out cytotoxicity at 10 µM, for NC(=O)c1cc(C2CCCN(CCOc3ccc(F)cc3)C2)n[nH]1 (configuration not stated)
Output: -7.92

Input: Next compound: N#Cc1ccnc(NCc2cc3n(n2)CCCN(C(=O)C2CCC2)C3)c1
Output: -135

Input: Next compound: CSc1ccccc1C(=O)NCCCN1CCc2ccccc2C1
Output: -15.6

Input: Next compound: Cc1cc(NC2CCc3nc(C(C)C)nn3C2)n2ncnc2n1 (configuration not stated)
Output: 13.4

Input: Next compound: COCC(=O)N(Cc1ccc2cc[nH]c2c1)C1CC1
Output: -5.54

Input: Next compound: Cc1ccsc1CN1CCc2nc3ccsc3c(=O)n2CC1
Output: 8.52

Input: Next compound: O=S(=O)(c1cc2ccccc2o1)N1CCCC1
Output: 20.2

----------
# assay-explanation: Toxicity liver stage against HepG2, at 10uM
# Type: cell-based
# Set-up: test concentration 10 uM, cell line HepG2-A16-CD81EGFP
# measurement-setup: human, HepG2-A16-CD81EGFP cells; read-out: INHIBITION
endpoint-label: cytotoxicity at 10 µM (%)
Hi! Could you send only the number? It should be in %, unit omitted.

molecule: COc1ccc(CNCCC(=O)N2CCc3sccc3C2)cc1O
cytotoxicity at 10 µM (%): 4.48

Input: Data request, read-out cytotoxicity at 10 µM, for CCn1ncnc1CN1CCC(CNC(=O)c2ccccc2C#N)C1 (configuration not stated)
Output: 13.2

Input: Next molecule: COc1ccc(F)cc1S(=O)(=O)NCCn1cnc(C)cc1=O
Output: -6.49

Input: Next molecule: CCC(NC(=O)c1ccoc1)c1ccccc1OCC(=O)N1CCCC1 (configuration not stated)
Output: -4.31

Input: Next molecule: Cc1nccn1C1CCCN(C(=O)C2=NN(C)C(=O)CC2)C1 (configuration not stated)
Output: -7.49

Input: Next molecule: CCOC(=O)CC1CCCCN1C(=O)c1cnc(C)cn1 (configuration not stated)
Output: 0.957

Input: Next molecule: Cc1noc(C)c1CS(=O)(=O)Cc1nc(C2CC2)no1
Output: 3.37

----------
# assay-explanation: Toxicity liver stage against HepG2, at 10uM
# Type: cell-based
# Design: test concentration 10 uM, cell line HepG2-A16-CD81EGFP
# measurement-setup: human, HepG2-A16-CD81EGFP cells; read-out: INHIBITION
endpoint-label: cytotoxicity at 10 µM (%)
Hi! Could you send only the number? It should be in %, unit omitted.

compound: Cc1noc(C)c1CN1CCc2c(CNc3nccs3)n[nH]c2C1
readout-units: %
cytotoxicity at 10 µM: 5.28

Input: Data request, read-out cytotoxicity at 10 µM, for Cc1nc(CN2CCOC3(CCCC3)C2)no1
Output: -6.65

Input: Next compound: Cn1nc(CN2CCCC2)c2c1CN(C(=O)c1ccncc1F)CC2
Output: -154

Input: Next compound: CN(CC(=O)NCC1CCCO1)Cc1nc2c(s1)CCCC2 (stereo unspecified)
Output: 21.6

Input: Next compound: CCCSCC(=O)N1C[C@@H]2CC[C@H]1CN(c1ncccn1)C2
Output: 4.42

Input: Next compound: Cc1noc([C@@]23CCO[C@@H]2CCN(C(=O)c2cc(C)[nH]c2C)C3)n1
Output: 10.4
